Cited source: the supplement of paper PMC4466140

Can you tell me SPOT peptide array binding signal intensity for the items I'm about to list?
# Experimental Target: ScPex13
# Experiment Summary: SPOT peptide array binding signal intensity (averaged, normalized) (arbitrary units (background-subtracted, floor 0; scale differs between SH3 domains)); higher = stronger binding of the SH3 domain to the peptide
One number for each entry.

Consider the reported SPOT peptide array binding signal intensity for these binders:
Binder	Value Reported
GSKSGPPPRPKKPST	133
LKQRFFLMFPKSIIW	15.5
KRKRRLPVSEDTNTK	0.5
RKNRAPPQRPRFNRE	128
VFQFQMPTTPISTKM	186

Hey, quick one: what's SPOT peptide array binding signal intensity for each of these?
1. TKHKAPPPPPPTAET
2. PVLPPPRSPNRPTLS

[0.75, 47]

Give SPOT peptide array binding signal intensity for all binders that follow.
1. SRSKPLPLTPNSKYN
2. VSKLRSPNTPRRLRK
3. MPAPPPPPPPPPGAF
4. QLLNPNRRAPRRPLS

1. 39
2. 8.5
3. 71.9
4. 50.5
